Answer each item with its documented pIC50.
- TESTED_ON: p38α (Homo sapiens)
- Construct: p38 MAP Kinases are recombinant human full-length proteins with an amino-terminal GST fusion; GST (N)
- Sequence (Q16539 whole entry, the tested form may be a part): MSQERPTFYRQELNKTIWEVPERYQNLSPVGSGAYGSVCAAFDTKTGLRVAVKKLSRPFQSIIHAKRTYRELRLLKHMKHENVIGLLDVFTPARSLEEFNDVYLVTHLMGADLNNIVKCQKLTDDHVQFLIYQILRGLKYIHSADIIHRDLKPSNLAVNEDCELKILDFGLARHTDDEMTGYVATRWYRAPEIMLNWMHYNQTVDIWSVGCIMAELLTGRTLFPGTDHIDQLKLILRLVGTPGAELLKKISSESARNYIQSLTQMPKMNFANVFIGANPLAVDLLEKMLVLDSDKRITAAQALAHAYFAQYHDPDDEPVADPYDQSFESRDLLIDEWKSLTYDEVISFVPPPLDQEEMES
- ASSAY_SUMMARY: p38 MAP Kinase assay: inhibition of ATF2 phosphorylation, ELISA
- TEST_PARAMETERS: ATF2 phosphorylation; read-out: [ENZ] P38 ALPHA, IC50, ELISA
- Excerpt: Compounds of the invention are screened for the ability to inhibit ATF2 phosphorylation by p38 MAP Kinase in vitro. […]
// field semantics: pIC50 = negative decimal log of concentration (mol/L)

Per the records, this compound ( CC1CCN(c2cc(C(=O)Nc3ccc(OCCN4CCOCC4)c4ccccc34)cc(Cl)n2)CC1 [Compound B218] ) has pIC50 equal to 6.06

Per the records, this compound ( CC1CCCN(c2cc(C(=O)Nc3ccc(OCCN4CCOCC4)c4ccccc34)ccn2)C1 (stereo not shown) [Compound B126] ) has pIC50 equal to 6.35

Per the records, this compound ( COC(CN(C)c1nccc(Oc2ccc(NC(=O)c3cc(F)cc(N4CCOCC4)c3)c3ccccc23)n1)OC [Compound B351] ) has pIC50 equal to 7.57

Per the records, this compound ( O=C(Nc1ccc(OCCN2CCOCC2)c2ccccc12)c1ccnc(N2CCCCC2)c1 [Compound B127] ) has pIC50 equal to 5.73

Per the records, this compound ( O=C(Nc1ccc(OCCN2CCOCC2)c2ccccc12)c1cc(F)cc(OC2CCOCC2)c1 [Compound B226] ) has pIC50 equal to 5.27

Per the records, this compound ( O=C(Nc1ccc(OCCN2CCOCC2)c2ccccc12)c1cccc(-c2ccccc2F)c1 [Compound B278] ) has pIC50 equal to 6.03

Per the records, this compound ( Cc1cc(-c2cccc(C(=O)Nc3ccc(OCCN4CCOCC4)c4ccccc34)c2)ccc1Cl [Compound B300] ) has pIC50 equal to 5.04

Per the records, this compound ( CN(C)c1ccc(C(=O)Nc2ccc(OCCN3CCOCC3)c3ccccc23)cc1 [Compound B34] ) has pIC50 equal to 4.97

Per the records, this compound ( O=C(Nc1ccc(OCCN2CCOCC2)c2ccccc12)c1ccccc1 [Compound B26] ) has pIC50 equal to 4.66

Per the records, this compound ( CC(=O)Nc1cccc(C(=O)Nc2ccc(OCCN3CCOCC3)c3ccccc23)c1 [Compound B32] ) has pIC50 equal to 5.13

Per the records, this compound ( O=C(Nc1ccc(Oc2ccnc(N3CCCCC3)n2)c2ccccc12)c1cc(F)cc(N2CCCCC2)c1 [Compound B375] ) has pIC50 equal to 6.97

Per the records, this compound ( Cc1ncsc1CCOc1ccc(NC(=O)c2cc(F)cc(N3CCOCC3)c2)c2ccccc12 [Compound B231] ) has pIC50 equal to 7.56

Per the records, this compound ( CC1CCCCN1c1cc(F)cc(C(=O)Nc2ccc(OCCN3CCOCC3)c3ccccc23)c1 (stereo not shown) [Compound B201] ) has pIC50 equal to 6.49

Per the records, this compound ( COc1ccc(CCOc2ccc(NC(=O)c3cc(F)cc(N4CCOCC4)c3)c3ccccc23)cc1OC [Compound B189] ) has pIC50 equal to 6.36

The measured values listed here are drawn from patent US7829560B2.
